System: MS2 coat protein
Assay: apparent KD of MS2 coat protein; designed switch direction (-1 OFF switch, 1 ON switch): -1; higher = weaker reporter binding
Settings: Eterna round: R95; input ligand: microRNA oligo, concentration not stated
Lab note: compare apparent KD of MS2 coat protein against 40 nM. Equal or greater, write satisfied. Smaller, write not satisfied.

| entry sequence | target or system | assigned label |
| --- | --- | --- |
| GUAUAACUACACGGGCUCAACAUGAGGAUCACCCAUGUCAUAUACGCAAGCUUUUUGCUUGUCUUACCUGUCCGUGA [Ariedbi] (puzzle: Sensor v3, turn-off variant 1) | MS2 coat protein | not satisfied |
| GUUACACAUGAGGAUCACCCAUGUAAGGAUAUGCUGCGGUCGCGCUGACGUGACUGCAGCAGAAGGUACAAUUG (puzzle: Exclusion 1) | MS2 coat protein | satisfied |
| GCCAGAGCAGGAUAUUCAAUAUCACACAUGAGGAUCACCCAUGUCUAUCGAAAGAUAGAGGGAGAAGGGCUCUGGC [Mat - Exclusion 5 - Eli mod - D94] (puzzle: Exclusion 5) | MS2 coat protein | satisfied |
| GGUCUGCGAGGAUAUACAUGAGGAUCACCCAUGUGAGUGAAACUAGUGAGGUCGAUUGGUAGAAGGCGCGGACG [Mat - Exclusion 3 - Mod of JL D82] (puzzle: Exclusion 3) | MS2 coat protein | satisfied |
| GAUUAUGCGAGCUUUAGGGACAUGAGGAUCACCCAUGUUCGUCUUAUUGAUCUGGAUACACUAACAUACCUAAAUCU [JMF 13] (puzzle: Sensor v3, turn-off variant 1) | MS2 coat protein | not satisfied |
| AGUUGGCGAGGAUAUACAUGAGGAUCACCCAUGUGAAAUAUAAUAGUGAGGAAGAAAAGUAGAAGGCGCUGACA [Mat - Exclusion 3 - Mod of Salish D42] (puzzle: Exclusion 3) | MS2 coat protein | satisfied |
| AUAUUACGAGGAUAUCGUCUCUCCCACAUGAGGAUCACCCAUGUUAUCCAUGUUUCGUUUCGAGAAGGCGUAAGUU [JR_E5_Sub071] (puzzle: Exclusion 5) | MS2 coat protein | satisfied |
| ACUUAUAGAGGAUAUACAGUAUAUUACAUGAGGAUCACCCAUGUUCUUCAAUGUAUAUAUGUAGAAGGCUAAGGAA [EX-5 Malc#6] (puzzle: Exclusion 5) | MS2 coat protein | satisfied |
| CGUGACUCAGGAUAUGUAUAAUAUCACAUGAGGAUCACCCAUGUCCAGCGAAAGCUGGAAGCAGAAGGGAGUCACG [Fiskers Ex 5 - 39] (puzzle: Exclusion 5) | MS2 coat protein | satisfied |

###

The following sequences are listed with their measured apparent KD of MS2 coat protein values.
Tested on: MS2 coat protein
Assay: apparent KD of MS2 coat protein; designed switch direction (-1 OFF switch, 1 ON switch): -1; higher = weaker reporter binding
Conditions: Eterna round: R95; input ligand: FMN 200 uM

| entry sequence | apparent KD of MS2 coat protein (nM) |
| --- | --- |
| UUGGUUAUCCAUGGAAGUAACAUGAGGAUCACCCAUGUAUGUCUAGUUUUUUGUUCGUCAUAGGCCUUUUGUUUGGA [JR_SV3TOV1_Sub022] (puzzle: Sensor v3, turn-off variant 1) | 26.8 |
| AGUAACUAUCACGAAAGUGAUAGUUACACAAGCAGUGAAACAUGAGGAUCACCCAUGUCCUCAAUUGCUCGUCUUAU [Sensor 3 - 31] (puzzle: Sensor v3, turn-off variant 2) | 47.8 |
| AAGAGGUCAGGAUAUACAGGAAGAGAGAGAAGUAGAGGGUAACAUGAGGAUCACCCAUGUAGAAGGGACUAAGA [JR_Exclu2_Sub071] (puzzle: Exclusion 2) | 67.9 |
| CUUCACCCACCAGAGCUCACCCACAUACCUACUCAGGUGACAUGAGGAUCACCCAUGUUUUUUGCCCGUCUUAUCUU [Vexebedi] (puzzle: Sensor v3, turn-off variant 2) | 28.3 |
| GUGUAACAAGGAUAUACAUGAGGAUCACCCAUGUGAAUAAGAUUGAAUAAGAUAAAGUGUAGAAGGUGUAGUGU [Excluse me!!! 9 - Jieux - Exclusion 3] (puzzle: Exclusion 3) | 32.5 |
| GUGAUAUAGUUAGUGGCCUACAUGAGGAUCACCCAUGUGAGGGAAAUGUUGAGGCGAAAGUUGUGUGCUCGUCUGUA [JR_SV3TOV1_Sub039] (puzzle: Sensor v3, turn-off variant 1) | 23.6 |
| AAUAAGAGAGGAUAUACUAAAAUAUGAAUAAAAUAAAUAAAACAUGAGGAUCACCCAUGUAGAAGGCUCAAUAA [JMF's Not so obvious solution 6] (puzzle: Exclusion 2) | 23.1 |
| UAUUAGCAAGCAAGAUCCCACAUGAGGAUCACCCAUGUGCUCGUCUUAUAAGGUACUGUGACGAAAGUCACGGUACC [Sensor 3, v1 - 83] (puzzle: Sensor v3, turn-off variant 1) | 36.8 |
| AAAGAAGAGAGAAAACAACACAUGAGGAUCACCCAUGUGAGAAGAUGAGGGUGAUACAGGCUAUAUGCUCGUCUUAU (puzzle: Sensor v3, turn-off variant 1) | 55 |
| AGAUGGCGAGGAUAUACAUGAGGAUCACCCAUGUGAGAAGAUAAAGUGAGGAAGAAAAGUAGAAGGCGCUGUCA [Mat - Exclusion 3 - Mod of Salish D23] (puzzle: Exclusion 3) | 68.3 |

###

The following sequences are listed with their measured apparent KD of MS2 coat protein values.
System: MS2 coat protein
Assay: apparent KD of MS2 coat protein; designed switch direction (-1 OFF switch, 1 ON switch): -1; higher = weaker reporter binding
Details: input ligand: FMN 200 uM

| entry sequence | apparent KD of MS2 coat protein / nM |
| --- | --- |
| CGAGCUGCUGUGAGGAUAUACCUGUGGGUGCGUGGGUAGAAGGCACAUGAGGAUCACCCAUGUCCUGCAGCUCG [salish99_bmx4_r4_105] (Eterna round: R97, puzzle: Brourd's mod of Exclusion 4) | 594 |
| GGAUAAAAGUGAGGAUAUGAGGAGAGAGAGAGAUCAGAAGGCACACAUGAGGAUCACCCAUGUGAGUUCUCGAUAAGAAACACG [Prohibition 55 - Jieux - Exclusion NG 1] (Eterna round: R96, puzzle: Exclusion NG 1) | 14.3 |
| GUGAUCUAUCAUGGAAUAAACAUGAGGAUCACCCAUGUAGACAAGUUUUUUGCUCGUCUUAUAAUAAGAUAGAUCAC [Antenna 14 - Jieux - Sensor, turn-off variant 1] (Eterna round: R97, puzzle: Sensor, turn-off variant 1) | 15.5 |
| UUGUUAUAUGAAGGAUAUACUUAACAUGAGGAUCACCCAUGUGGUGUUGUGAGUGAGUGAGUUUAGUAGAAGGUCAAUUAUUUU [JMF's solution 29] (Eterna round: R96, puzzle: Exclusion NG 2) | 1340 |
| AUAAGUGAUAAGGAUAUCACUAGCCUCGGCUAGUGAGAAGGUAUCACAUGAGGAUCACCCAUGUGUUCCAAUAA [Ex6/7-A2] (Eterna round: R97, puzzle: Exclusion 6) | 1350 |
| ACAAGCUUUUAGAUUCUUAACAUGAGGAUCACCCAUGUGCUCGUCUUAUUGGGCCCGGGCCCGCCGGGCCCGGGCCC (Eterna round: R97, puzzle: Sensor, turn-off variant 1) | 39.2 |
| ACAUGAGGAUCACCCAUGUCUGGCUGGUCCGUCUCGGCUGUCGAGGAUAUGGCUCGGUGUCCGCGCUAGAAGGCGGGAGCUGGU [Aenatbe mod 79] (Eterna round: R96, puzzle: Exclusion NG 3) | 195 |
| AGCGAGGUAGGAUAUACAUGAGGAUCACCCAUGUGCUUGUAUGGCGUGGAACAUCGUAGUAGAAGGGCCGCGCC [EX3 #76] (Eterna round: R97, puzzle: Exclusion 3) | 21.9 |
| UUAUUAAUUAAGACUGCAAGAUCACAUGAGGAUCACCCAUGUCAGGAUAUCAGCUCGUUUAGAGCUGAGAAGGGACAAGCAGUC [ExNG3/15-A2] (Eterna round: R96, puzzle: Exclusion NG 3) | 337 |
| AGAUGUUAAGAGGAUAUCAGCCAAAACCGGCAGUGAGAAGGCUUGACAUGAGGAUCACCCAUGUUUUGCGGUAA [Islalaus] (Eterna round: R97, puzzle: Exclusion 6) | 397 |
| AGUAGUUGUUUCCGUUCUUACAUGAGGAUCACCCAUGUUUCUUGACGUGCACGCGAUGCUCGUCAGACUACCAGAUG [salish99_TOv1_r3_057] (Eterna round: R96, puzzle: Sensor v3, turn-off variant 1) | 60.5 |
| UCCCAGCUAGGAUAUACAUGAGGAUCACCCAUGUCGAUCCACGGCACCCGAGUAUUGAGUAGAAGGAGUCAGGA [Eternabot (L2) Solution 69] (Eterna round: R97, puzzle: Exclusion 3) | 25.1 |
| CAUAGUCUAGGAUAUUCACCUCUAUACAUGAGGAUCACCCAUGUCAAUGGCAGAUGACCAGAAGAAGGAGAAGUGG [Eternabot (L1) Solution 16] (Eterna round: R97, puzzle: Exclusion 5) | 90.2 |
| AAUCGAUCGCCGUACGCACACAUGAGGAUCACCCAUGUAGCUGAGGAUAUCCACCCAUAACGGUCGGAGAAGGCGGGACUGGGA [Eraananbi] (Eterna round: R96, puzzle: Exclusion NG 3) | 30.8 |
| CCGUGGUUAGGAUAUUCGAAUGAGCACAUGAGGAUCACCCAUGUCUGAAUUGACAGCCGAGAAGAAGGAACCACUC [Eternabot (L2) Solution 24] (Eterna round: R97, puzzle: Exclusion 5) | 29.5 |
| GCGGAGAGAGAAGGAUAUUGAAAUGCUUCUACAUGAGGAUCACCCAUGUUCGGCAGACAUGGGACCAAGAAGGUCUAUGUCGCG [Eternabot solution 27] (Eterna round: R96, puzzle: Exclusion NG 2) | 70.2 |
| CCGAAAAGGAAGGAUAUGCUAGACGAAAGUCUAGCAGAAGGUCCUACAUGAGGAUCACCCAUGUGGUCCUUCGG [Mat - Exclusion 6 - Eli Mod - D35] (Eterna round: R97, puzzle: Exclusion 6) | 1730 |
| ACAUGUGUUGUAGGAUAUAGGAGACAUGAGGAUCACCCAUGUUGAUUCAUGUCUAUGGAAACGUCCUAGAAGGACGACAACAUG [Ex NG2 #20] (Eterna round: R96, puzzle: Exclusion NG 2) | 237 |
